Tested on: Pseudomonas aeruginosa
assay notes: Antibacterial activity against Pseudomonas aeruginosa MTCC 424 after 24 hrs by tube dilution method
Format: functional
measurement conditions: MTCC 424, 24 h
Here the recorded MIC is given for each entry.
endpoint label: MIC (µg/mL)

[[record]]
compound = "O=C1N=C(C2C(=O)c3ccccc3C2=O)CC(c2ccco2)N1 (stereo not given)"
target_or_test_system = "Pseudomonas aeruginosa"
result = 500

[[record]]
compound = "CC1(C)S[C@@H]2[C@H](NC(=O)[C@H](N)c3ccccc3)C(=O)N2[C@H]1C(=O)O [AMPICILLIN]"
target_or_test_system = "Pseudomonas aeruginosa"
result = 3.9

[[record]]
compound = "O=C1N=C(C2C(=O)c3ccccc3C2=O)CC(c2ccccc2)N1 (stereo not given)"
target_or_test_system = "Pseudomonas aeruginosa"
result = 125

[[record]]
compound = "COc1cc(C2CC(C3C(=O)c4ccccc4C3=O)=NC(=O)N2)ccc1O (stereo not given)"
target_or_test_system = "Pseudomonas aeruginosa"
result = 250

[[record]]
compound = "O=C1N=C(C2C(=O)c3ccccc3C2=O)CC(c2ccc([N+](=O)[O-])cc2)N1 (stereo not given)"
target_or_test_system = "Pseudomonas aeruginosa"
result = 250


====

Tested on: Bacillus subtilis
assay notes: Antibacterial activity against Bacillus subtilis MTCC 441 after 24 hrs by tube dilution method
Type: functional
measurement conditions: MTCC 441, 24 h
endpoint label: MIC (µg/mL)

[[record]]
compound = "O=C1N=C(C2C(=O)c3ccccc3C2=O)CC(/C=C/c2ccccc2)N1 (stereo not given)"
result = 125

[[record]]
compound = "COc1ccc(C2CC(C3C(=O)c4ccccc4C3=O)=NC(=O)N2)cc1 (stereo not given)"
result = 125

[[record]]
compound = "O=C1N=C(C2C(=O)c3ccccc3C2=O)CC(c2ccc(Cl)cc2)N1 (stereo not given)"
result = 31.2

[[record]]
compound = "O=C1N=C(C2C(=O)c3ccccc3C2=O)CC(c2ccco2)N1 (stereo not given)"
result = 31.2

[[record]]
compound = "O=C1N=C(C2C(=O)c3ccccc3C2=O)CC(c2ccc([N+](=O)[O-])cc2)N1 (stereo not given)"
result = 250

[[record]]
compound = "COc1cc(C2CC(C3C(=O)c4ccccc4C3=O)=NC(=O)N2)ccc1O (stereo not given)"
result = 250

[[record]]
compound = "O=C1N=C(C2C(=O)c3ccccc3C2=O)CC(c2ccccc2)N1 (stereo not given)"
result = 250

[[record]]
compound = "CN(C)c1ccc(C2CC(C3C(=O)c4ccccc4C3=O)=NC(=O)N2)cc1 (stereo not given)"
result = 125

[[record]]
compound = "O=C1N=C(C2C(=O)c3ccccc3C2=O)CC(c2c[nH]c3ccccc23)N1 (stereo not given)"
result = 250

[[record]]
compound = "O=C1N=C(C2C(=O)c3ccccc3C2=O)CC(c2cccc([N+](=O)[O-])c2)N1 (stereo not given)"
result = 250


====

Tested on: Pseudomonas aeruginosa
assay notes: Antibacterial activity against Pseudomonas aeruginosa MTCC 424 after 24 hrs by tube dilution method
Assay type: functional
measurement conditions: MTCC 424, 24 h
endpoint label: MIC (mg/L)

[[record]]
compound = "O=C1N=C(C2C(=O)c3ccccc3C2=O)CC(c2ccccc2[N+](=O)[O-])N1 (stereo not drawn)"
target_or_test_system = "Pseudomonas aeruginosa"
scale_unit = "mg/L"
result = 250

[[record]]
compound = "CN(C)c1ccc(C2CC(C3C(=O)c4ccccc4C3=O)=NC(=O)N2)cc1 (stereo not drawn)"
target_or_test_system = "Pseudomonas aeruginosa"
scale_unit = "mg/L"
result = 62.5

[[record]]
compound = "O=C1N=C(C2C(=O)c3ccccc3C2=O)CC(/C=C/c2ccccc2)N1 (stereo not drawn)"
target_or_test_system = "Pseudomonas aeruginosa"
scale_unit = "mg/L"
result = 250

[[record]]
compound = "O=C1N=C(C2C(=O)c3ccccc3C2=O)CC(c2ccccc2O)N1 (stereo not drawn)"
target_or_test_system = "Pseudomonas aeruginosa"
scale_unit = "mg/L"
result = 125

[[record]]
compound = "O=C1N=C(C2C(=O)c3ccccc3C2=O)CC(c2cccc([N+](=O)[O-])c2)N1 (stereo not drawn)"
target_or_test_system = "Pseudomonas aeruginosa"
scale_unit = "mg/L"
result = 250

[[record]]
compound = "O=C1N=C(C2C(=O)c3ccccc3C2=O)CC(c2c[nH]c3ccccc23)N1 (stereo not drawn)"
target_or_test_system = "Pseudomonas aeruginosa"
scale_unit = "mg/L"
result = 125

[[record]]
compound = "O=C1N=C(C2C(=O)c3ccccc3C2=O)CC(c2ccc(Cl)cc2)N1 (stereo not drawn)"
target_or_test_system = "Pseudomonas aeruginosa"
scale_unit = "mg/L"
result = 62.5

[[record]]
compound = "COc1ccc(C2CC(C3C(=O)c4ccccc4C3=O)=NC(=O)N2)cc1 (stereo not drawn)"
target_or_test_system = "Pseudomonas aeruginosa"
scale_unit = "mg/L"
result = 250

